Exercise: state measured viability at 28.5 h, 1 µM for each of the compounds provided.
# assay-name: in vitro
# Parameters: Viability of infected HeLa host cells, resazurin conversion, bulk resorufin fluorescence relative to DMSO
# condition-notes: human, hela cells; bulk resorufin, mean of 3
Numbers only, in %.

compound | value-unit | recorded-measurement
OCCNc1nc(Nc2ccc(Br)cc2)nc2ccccc12 [c17e] | % | 86
COc1ccc([C@@H]2CN(C)C[C@H]2NC(=O)Nc2ccc(Cl)c(Cl)c2)cc1OC [c39e] | % | 84.4
CCC1C(c2ccc(C)cc2)=CCC(C(=O)NCCCN(C)C)C1C (stereo not drawn) [c30e] | % | 92.4
CC(=O)Nc1ccc(-c2cccc(COC3CCN(C(=O)c4ccc(OC(C)C)cc4)CC3)c2)cc1 [c36e] | % | 92

Please look at the items below and tell me viability at 28.5 h, 1 µM for each one, in order.
1. CN(C)c1ccc(Nc2nc(NCCO)c3ccccc3n2)cc1 [c27e]
2. C1=C(CCNCCc2ccccc2)c2ccccc2C12CCCC2 [c51e]

Response given:
1: 89.9; 2: 102

====

# assay-name: in vitro
# condition-notes: human, hela cells, % viability
observation-type: viability at 28.5 h, 10 µM
Don't forget the unit after the value.

compound | recorded-measurement
CS(=O)(=O)N1CC2(CCN(CC3CCCCC3)CC2)c2ccccc21 | 96.8%
CC(CN1CCN(Cc2ccccc2)CC1)N(C(=O)c1ccoc1)c1ccccn1 (stereo not drawn) [CBK074861C] | 92.1%

Challenge: Field request: viability at 28.5 h, 10 µM | item: "COc1cc(CNC(=O)NC(=O)C2CCN(CCCc3ccc(Cl)c(Cl)c3)CC2)cc(OC)c1OC"
Response given: 107%

====

Exercise: state measured viability at 28.5 h, 10 µM for each of the compounds provided.
# assay-name: in vitro
# condition-notes: human, hela cells, % viability
Numbers only, in %.

Worked cases, viability at 28.5 h, 10 µM given:
compound | value-unit | viability at 28.5 h, 10 µM
O=C(Cc1c[nH]c2ccccc12)N1CCC2(CCCN(CCO)C2)C1 (centres unmarked) | % | 95.9
CC1(C)CC(=O)C2=C(C1)CC1(C)CC(C)(C)CC2(Nc2ccccn2)C1 (centres unmarked) | % | 121
C=CCNC(=S)Nc1sc2c(c1C(=O)OCC)CC(C)CC2 (centres unmarked) | % | 89.8
NC(=O)CC1C(=O)N(c2ccc(F)cc2)C(=S)N1NC(=O)CCc1ccccc1 (centres unmarked) [CBK268978A] | % | 108
COc1ccc(Nc2nc(-c3cccc(-c4ccccc4)c3)cnc2N)cc1 | % | 89.8

Please look at the items below and tell me viability at 28.5 h, 10 µM for each one, in order.
1. CC(C)(C)c1cn2c3ccccc3nc2n1CCO
2. CCC(CC)c1cc([C@H]2CN3CC[C@H]2C[C@@H]3CO)nc(-c2ccncc2)n1
3. C=CCn1c2cc(C)sc2c2cnn(CC(=O)N(C)C)c(=O)c21
4. COc1ccc2c(c1)C1(CC(=O)N(CCC3CCCCC3)C1=O)C(=O)N2C (centres unmarked)
5. C1=CCC(CN2CCN(C3CCN(Cc4ccccc4)CC3)CC2)CC1 (centres unmarked)
6. COc1cccc(NS(=O)(=O)c2cc(CC(=O)O)ccc2OC)c1
7. COc1cc(/C=C/c2cc(C(F)(F)F)[nH]c(=O)n2)c(Cl)cc1O
8. Cn1cc(C2CCCCCN2C(=O)c2nn(C)cc2Cl)cn1 (centres unmarked)

Response given:
102
100
83.9
120
91.6
93.9
80
93.2

Please look at the items below and tell me viability at 28.5 h, 10 µM for each one, in order.
1. CCC(=O)Nc1nc2c(OC)ccc(C)c2s1
2. Nc1ncnc(NNC(=O)CNC(=O)c2ccccc2C(F)(F)F)c1[N+](=O)[O-]
3. C[C@H]1CN2C[C@H](O)CC2CN1Cc1cccn1Cc1ccccc1F (some centres unmarked)

Response given:
1. 110
2. 94.1
3. 88.7

Please look at the items below and tell me viability at 28.5 h, 10 µM for each one, in order.
1. O=C(NC1Cc2ccccc2C1)c1ccc2ccccc2n1
2. COc1ccc(CCNC(=O)N2CCCC(CO)C2)cc1 (centres unmarked)
3. O=c1[nH]c2ncc(-c3ccco3)nc2n1CCc1cccnc1
4. CCCNc1cc(C)c(C#N)c2nc3ccccc3n12
5. CC(=O)Nc1ccc(OCC(O)Cn2cnc3ncccc3c2=O)cc1 (centres unmarked)
6. Cc1c(CN2CCCC(n3cnc4cc(F)ccc43)C2)cnn1C (centres unmarked)
7. O=C(Cc1ccccn1)N1CCN(Cc2ccccc2)CC1
8. COc1ccc(-n2ccc(=O)c(Cc3c(Cl)cccc3Cl)c2C)cc1

Response given:
1. 81.8
2. 87.1
3. 94.7
4. 94
5. 86.4
6. 89.9
7. 103
8. 89.2

Please look at the items below and tell me viability at 28.5 h, 10 µM for each one, in order.
1. COC(=O)c1cc(C)sc1NC(=S)Nc1cnn(Cc2cccc3ccccc23)c1
2. O=C(CN1CCC(NC(=O)c2cccs2)CC1)Nc1cc(F)ccc1F
3. O=C1[C@@H]2CCCN2C(=O)c2ccccc2N1Cc1ccc(F)cc1
4. Cc1cc(C)c(CNC(=O)N(C)C(C)c2ccncn2)cn1 (centres unmarked)
5. O=C1CC(SCCc2nc3ccccc3[nH]2)C(=O)N1c1cccc(F)c1 (centres unmarked)

Response given:
1: 101; 2: 102; 3: 117; 4: 93.4; 5: 94.6
